Molecular target: human stimulator of interferon genes (STING) (139-379) (Homo sapiens (Human))
Sequence (Q86WV6 139-379): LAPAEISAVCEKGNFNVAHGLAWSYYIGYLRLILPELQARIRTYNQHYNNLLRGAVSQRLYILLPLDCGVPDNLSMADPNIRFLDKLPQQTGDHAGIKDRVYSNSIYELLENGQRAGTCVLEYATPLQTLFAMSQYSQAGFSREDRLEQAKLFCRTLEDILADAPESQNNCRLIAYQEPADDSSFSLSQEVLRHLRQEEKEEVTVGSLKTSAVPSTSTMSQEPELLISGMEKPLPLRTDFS
A collection of compounds and their measured IC50
Write the number in nM without appending the unit.

Reference set (3 entries):
smiles.input | recorded.endpoint | value.measured
Cn1nc2cccc3c2c1CCCN(CCCc1ccccc1)C(=O)[C@@H]1C[C@@H](CN1c1ncnc2c1cnn2-c1ccc(F)cc1F)Oc1cccc-3n1 | IC50 | 2.1
Cn1nc2cccc3c2c1CCCN(CCN1CCOCC1)C(=O)[C@@H]1C[C@@H](CN1c1ncnc2c1cnn2-c1ccc(F)cc1F)Oc1cccc-3c1 | IC50 | 1.6
COc1cc(F)ccc1-n1ncc2c(N3C[C@@H]4C[C@H]3C(=O)N(C)CCCc3c5c(cccc5nn3C)-c3ccnc(n3)N4)ncnc21 | IC50 | 5

Entry `CN(C)CCN1CCCc2c3c(cccc3nn2C)-c2cccc(c2)O[C@H]2C[C@@H](C1=O)N(c1ncnc3c1cnn3-c1ccc(F)cc1F)C2` : reported IC50 = ?
8.2

Entry `CC(=O)N1CCN(CCCN2CCCc3c4c(cccc4nn3C)-c3cccc(c3)O[C@H]3C[C@@H](C2=O)N(c2ncnc4c2cnn4-c2ccc(F)cc2F)C3)CC1` : reported IC50 = ?
1.7

Entry `COc1cc(F)ccc1-n1ncc2c(N3C[C@@H]4C[C@H]3C(=O)N(CCCN3CCOCC3)CCCc3c5c(cccc5nn3C)-c3cc(C)cc(n3)N4)ncnc21` : reported IC50 = ?
7.6
